assayOverview: Total clearance in rat at 0.5 mg/kg, iv and 1 mg/kg, po
Assay type: ADME, organism-based
experimentalSetup: in vivo
experimentalReadout: clearance (mL/min/kg)
The reply should contain only the number, in mL/min/kg.

Solved cases (8 shown):
{"compoundSmiles": "CSC(=S)N1CC(C)(C)CS/C1=N\\c1ccccc1C(C)C", "clearance [mL/min/kg]": 63.4}
{"compoundSmiles": "CSC(=S)N1CC2(CCCC2)CS/C1=N\\c1ccccc1C(C)C", "clearance [mL/min/kg]": 54.2}
{"compoundSmiles": "CCC1(CC)CS/C(=N\\c2ccccc2C(C)C)N(C(=S)SC)C1", "clearance [mL/min/kg]": 48.3}
{"compoundSmiles": "CSC(=S)N1CC2(CCCCC2)CS/C1=N\\c1cccc2ncccc12", "clearance [mL/min/kg]": 121}
{"compoundSmiles": "CSC(=S)N1CC2(CCCCC2)CS/C1=N\\c1cccc2c1CCCC2", "clearance [mL/min/kg]": 19.1}
{"compoundSmiles": "CSC(=S)N1CC2(CC2)CS/C1=N\\c1ccccc1C(C)C", "clearance [mL/min/kg]": 85.1}
{"compoundSmiles": "COc1ccccc1/N=C1\\SCC2(CCCCC2)CN1C(=S)SC", "clearance [mL/min/kg]": 75.9}
{"compoundSmiles": "CSC(=S)N1CC2(CCCCC2)CS/C1=N\\c1cccc2nsnc12", "clearance [mL/min/kg]": 60.4}

The reported clearance of the compound CSC(=S)N1CC2(CCCCC2)CS/C1=N\c1ccc(OC(F)(F)F)cc1 was 7.4

The value of clearance measured for the compound COc1cccc(/N=C2\SCC3(CCCCC3)CN2C(=S)SC)c1 turned out to be 45.1

Item: CSC(=S)N1CC2(CCCCC2)CS/C1=N\c1ccccc1C(C)C | clearance: 18.6

Please fill in: clearance reported for CSC(=S)N1CC2(CCCCC2)CS/C1=N\c1cccc2ccccc12 = 17.7

---

Measured bioavailability accompanies every entry in the list below.
assayOverview: Oral bioavailability in rat at 30 mg/kg
Assay type: ADME, organism-based
experimentalSetup: in vivo
Report only the number, with the unit % understood.

# annotated cases, reported bioavailability shown
{"compoundSmiles": "CSC(=S)N1CC2(CCCCC2)CS/C1=N\\c1ccc(OC(F)(F)F)cc1", "bioavailability [%]": 20}
{"compoundSmiles": "CSC(=S)N1CC2(CCCCC2)CS/C1=N\\c1cccc2ccccc12", "bioavailability [%]": 36}
{"compoundSmiles": "CSC(=S)N1CC2(CCCCC2)CS/C1=N\\c1cccc2c1CCCC2", "bioavailability [%]": 7}

Turning to the following molecule.
response.value for CSC(=S)N1CC2(CCCCC2)CS/C1=N\c1ccccc1C(C)C (field: bioavailability) = 24

---

As an illustration, consider measured pKi for compounds on Cannabinoid receptor 2 (Mus musculus).
Sequence (P47936 whole entry): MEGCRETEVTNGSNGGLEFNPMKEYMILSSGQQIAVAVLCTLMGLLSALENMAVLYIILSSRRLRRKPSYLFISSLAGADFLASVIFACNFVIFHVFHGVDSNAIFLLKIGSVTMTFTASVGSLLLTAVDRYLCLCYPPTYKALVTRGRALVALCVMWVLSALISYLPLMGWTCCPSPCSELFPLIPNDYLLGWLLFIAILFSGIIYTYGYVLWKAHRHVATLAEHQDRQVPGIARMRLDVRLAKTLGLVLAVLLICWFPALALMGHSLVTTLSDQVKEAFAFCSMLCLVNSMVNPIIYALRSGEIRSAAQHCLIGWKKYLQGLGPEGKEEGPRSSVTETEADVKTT
The read-out pKi is expressed as -log10 of concentration in moles per litre.

{"compoundSmiles": "CSC(=S)N1CC2(CCCCC2)CS/C1=N\\c1ccccc1C(C)C", "experimentalReadout": "pKi", "recordedResult": 8.92}
{"compoundSmiles": "CSC(=S)N1CC2(CCCCC2)CS/C1=N\\c1ccc(OC(F)(F)F)cc1", "experimentalReadout": "pKi", "recordedResult": 8.15}
{"compoundSmiles": "CSC(=S)N1CC2(CCCCC2)CS/C1=N\\c1cccc2c1CCCC2", "experimentalReadout": "pKi", "recordedResult": 9.15}

Lab note: next compound to report on.
For the compound CSC(=S)N1CC2(CCCCC2)CS/C1=N\c1cccc2ccccc12 , the measured pKi on Cannabinoid receptor 2 (Mus musculus) was 8.40

---

assayOverview: AUC in rat at 30 mg/kg, po
Assay type: ADME, organism-based
Set-up: dose 30 mg/kg, route oral
experimentalSetup: plasma
experimentalReadout: AUC (ng·h/mL)
Response body: numeric value in ng·h/mL, unit text excluded.

Sample records with AUC:
{"compoundSmiles": "CSC(=S)N1CC2(CCCCC2)CS/C1=N\\c1cccc2ccccc12", "AUC / ng·h/mL": 6100}
{"compoundSmiles": "CSC(=S)N1CC2(CCCCC2)CS/C1=N\\c1ccccc1C(C)C", "AUC / ng·h/mL": 3200}
{"compoundSmiles": "CSC(=S)N1CC2(CCCCC2)CS/C1=N\\c1ccc(OC(F)(F)F)cc1", "AUC / ng·h/mL": 3900}

Recorded AUC (molecule CSC(=S)N1CC2(CCCCC2)CS/C1=N\c1cccc2c1CCCC2 ): 1500

---

Listed next: entries and their corresponding log10(Ki).
systemUnderTest: UniProtKB P21554
Sequence (P21554 whole entry): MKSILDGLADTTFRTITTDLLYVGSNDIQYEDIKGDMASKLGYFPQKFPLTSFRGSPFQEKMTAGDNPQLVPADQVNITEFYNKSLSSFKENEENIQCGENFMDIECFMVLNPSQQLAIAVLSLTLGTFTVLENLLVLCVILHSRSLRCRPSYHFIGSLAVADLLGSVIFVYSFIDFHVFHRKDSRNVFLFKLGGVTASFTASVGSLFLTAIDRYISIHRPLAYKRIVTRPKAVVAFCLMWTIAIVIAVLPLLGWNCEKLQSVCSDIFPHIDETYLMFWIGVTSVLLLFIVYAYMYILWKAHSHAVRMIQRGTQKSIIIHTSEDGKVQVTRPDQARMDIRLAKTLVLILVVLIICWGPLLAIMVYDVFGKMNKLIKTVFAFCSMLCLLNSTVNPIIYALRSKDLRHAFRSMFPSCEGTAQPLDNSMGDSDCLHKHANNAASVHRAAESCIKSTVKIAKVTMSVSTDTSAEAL
Response schema: value (number) is log10 of Ki in units of nM.

Some solved entries appear below for comparison.
{"compoundSmiles": "CSC(=S)N1CC2(CCCCC2)CS/C1=N\\c1cccc(C(C)C)c1", "log10(Ki)": 2.00}
{"compoundSmiles": "CSC(=S)N1CC2(CCCC2)CS/C1=N\\c1ccccc1C(C)C", "log10(Ki)": 2.73}
{"compoundSmiles": "CSC(=S)N1CC2(CCCCC2)CS/C1=N\\c1cccc2nsnc12", "log10(Ki)": 1.64}
{"compoundSmiles": "COc1cccc(/N=C2\\SCC3(CCCCC3)CN2C(=S)SC)c1", "log10(Ki)": 2.03}
{"compoundSmiles": "CSC(=S)N1CC2(CCCCC2)CS/C1=N\\c1cccc(C)c1C", "log10(Ki)": 2.06}
{"compoundSmiles": "CCc1ccc(/N=C2\\SCC3(CCCCC3)CN2C(=S)SC)cc1", "log10(Ki)": 1.98}
{"compoundSmiles": "CSC(=S)N1CC2(CCCCC2)CS/C1=N\\c1cccc2nonc12", "log10(Ki)": 2.39}
{"compoundSmiles": "CSC(=S)N1CC2(CCCCC2)CS/C1=N\\c1ccc(C(C)C)cc1", "log10(Ki)": 3.10}

Let's switch to this compound now.
Response field log10(Ki) (UniProtKB P21554) for item CSC(=S)N1CC2(CCCCC2)CS/C1=N\c1ccccc1C(F)(F)F : 2.62

---

systemUnderTest: Cannabinoid receptor 2 (Homo sapiens, UniProt P34972)
Sequence (P34972 whole entry): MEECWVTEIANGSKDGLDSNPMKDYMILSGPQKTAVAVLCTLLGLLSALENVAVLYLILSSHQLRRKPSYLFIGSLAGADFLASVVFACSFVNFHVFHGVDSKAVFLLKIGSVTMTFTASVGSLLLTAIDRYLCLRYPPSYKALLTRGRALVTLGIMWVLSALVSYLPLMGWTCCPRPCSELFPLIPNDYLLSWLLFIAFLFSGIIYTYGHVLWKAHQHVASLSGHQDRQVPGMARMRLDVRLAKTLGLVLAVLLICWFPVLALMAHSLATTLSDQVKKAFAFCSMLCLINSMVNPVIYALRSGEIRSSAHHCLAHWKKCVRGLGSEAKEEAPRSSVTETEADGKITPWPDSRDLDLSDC
assayOverview: Binding affinity to human CB2 receptor
pKi listing for selected compounds.
Just so you know, pKi here is -log10 of the concentration in molar units; reply with that number alone.

pKi for CSC(=S)N1CC2(CCCC2)CS/C1=N\c1ccccc1C(C)C is 9.00

Record CSC(=S)N1CC2(CCCCC2)CS/C1=N\c1ccc(C(C)C)cc1 . Reported pKi: 7.64

Reported pKi for COc1ccc(/N=C2\SCC3(CCCCC3)CN2C(=S)SC)cc1 was 8.42

Measured pKi, CSC(=S)N1CC2(CCCCC2)CS/C1=N\c1ccc(OC(F)(F)F)cc1 : 8.22

Reported pKi of COc1ccccc1/N=C1\SCC2(CCCCC2)CN1C(=S)SC : 8.96

Just so you know, measured pKi for CSC(=S)N1CC2(CCCCC2)CS/C1=N\c1cccc2c1CCC2 came out at 8.30

---

Below are Ki values measured for Cannabinoid receptor 2 (Homo sapiens, UniProt P34972).
Output spec: scalar in nM, unitless text.

Example cases with answers are listed next.
{"compoundSmiles": "CSC(=S)N1CC2(CCCCC2)CS/C1=N\\c1cccc2ncccc12", "systemUnderTest": "Cannabinoid receptor 2 (Homo sapiens, UniProt P34972)", "recordedResult": 11}
{"compoundSmiles": "CCC1(CC)CS/C(=N\\c2ccccc2C(C)C)N(C(=S)SC)C1", "systemUnderTest": "Cannabinoid receptor 2 (Homo sapiens, UniProt P34972)", "recordedResult": 9}
{"compoundSmiles": "CSC(=S)N1CC2(CCCCC2)CS/C1=N\\c1cccc2c1CCCC2", "systemUnderTest": "Cannabinoid receptor 2 (Homo sapiens, UniProt P34972)", "recordedResult": 0.2}
{"compoundSmiles": "CSC(=S)N1CC2(CCCCC2)CS/C1=N\\c1cccc2ccccc12", "systemUnderTest": "Cannabinoid receptor 2 (Homo sapiens, UniProt P34972)", "recordedResult": 6}

Form: compound = CSC(=S)N1CC2(CCCCC2)CS/C1=N\c1ccc(C#N)cc1 ; Ki = 2.3

Lab note: COc1cccc(/N=C2\SCC3(CCCCC3)CN2C(=S)SC)c1 gave Ki of 1

The reported value for CCCc1ccc(/N=C2\SCC3(CCCCC3)CN2C(=S)SC)cc1 in terms of Ki is 7

# Ki of CSC(=S)N1CC2(CC2)CS/C1=N\c1ccccc1C(C)C = 65

Ki in this record for CCc1ccc(/N=C2\SCC3(CCCCC3)CN2C(=S)SC)cc1 : 1.2

---

Ki values for the compounds below.
systemUnderTest: Cannabinoid receptor 1 (Mus musculus, UniProt P47746)
Sequence (P47746 whole entry): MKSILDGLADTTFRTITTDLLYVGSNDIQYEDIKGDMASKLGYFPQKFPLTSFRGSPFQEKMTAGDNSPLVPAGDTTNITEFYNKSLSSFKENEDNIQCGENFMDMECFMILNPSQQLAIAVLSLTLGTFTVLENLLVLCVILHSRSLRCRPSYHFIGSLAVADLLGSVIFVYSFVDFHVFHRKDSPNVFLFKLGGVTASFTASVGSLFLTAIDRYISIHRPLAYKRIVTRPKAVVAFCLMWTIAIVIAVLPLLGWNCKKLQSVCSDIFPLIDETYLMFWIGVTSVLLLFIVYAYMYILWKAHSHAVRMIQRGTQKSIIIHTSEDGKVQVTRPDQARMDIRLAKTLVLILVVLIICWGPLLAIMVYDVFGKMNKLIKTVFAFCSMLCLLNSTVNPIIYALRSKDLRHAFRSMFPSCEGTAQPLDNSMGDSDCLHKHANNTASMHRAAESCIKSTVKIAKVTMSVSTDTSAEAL
Answer in µM, number only, no unit symbol.

{"compoundSmiles": "CSC(=S)N1CC2(CCCCC2)CS/C1=N\\c1ccc(OC(F)(F)F)cc1", "unitOfMeasure": "µM", "recordedResult": 1.21}
{"compoundSmiles": "CSC(=S)N1CC2(CCCCC2)CS/C1=N\\c1cccc2ccccc12", "unitOfMeasure": "µM", "recordedResult": 0.0068}
{"compoundSmiles": "CSC(=S)N1CC2(CCCCC2)CS/C1=N\\c1cccc2c1CCCC2", "unitOfMeasure": "µM", "recordedResult": 0.006}

Continue with the compound presented below.
The measured Ki that CSC(=S)N1CC2(CCCCC2)CS/C1=N\c1ccccc1C(C)C showed for Cannabinoid receptor 1 (Mus musculus, UniProt P47746) is 0.08
